Listing of recorded LD50 by entry.
Assay: Acute toxicity in mice, after intraperitoneal administration.
Type: organism-based
Conditions: mouse, in vivo, ip
observation_type: LD50 (mg/kg)

• Fc1ccc([C@H]2c3ccccc3[C@H]3NCCC[C@@H]23)cc1 = 61
• COc1ccc2c(c1)[C@@H](c1ccc(C)cc1)[C@@H]1CCCN(C)[C@H]21 = 67
• Nc1ccc([C@@H]2c3cc(O)ccc3[C@H]3NCCC[C@@H]23)cc1 = 150

---

Listing of recorded LD50 by entry.
Assay: Acute toxicity in mice, after intraperitoneal administration.
Format: organism-based
Settings: mouse, in vivo, ip
observation_type: LD50

* CN1CCC[C@H]2[C@H](c3ccc(O)cc3)c3ccccc3[C@H]21 | 178 mg/kg
* CC(C)c1ccc([C@@H]2c3cc(O)ccc3[C@H]3NCCC[C@@H]23)cc1 | 50 mg/kg
* COc1cc2c(cc1OC)[C@H]1NCCC[C@H]1[C@H]2c1ccccc1 | 70 mg/kg
* CC(C)c1ccc([C@H]2c3cc(O)ccc3[C@H]3NCCC[C@@H]23)cc1 | 90 mg/kg
